# Study system: UniProt:Q969S2
# Sequence (whole entry): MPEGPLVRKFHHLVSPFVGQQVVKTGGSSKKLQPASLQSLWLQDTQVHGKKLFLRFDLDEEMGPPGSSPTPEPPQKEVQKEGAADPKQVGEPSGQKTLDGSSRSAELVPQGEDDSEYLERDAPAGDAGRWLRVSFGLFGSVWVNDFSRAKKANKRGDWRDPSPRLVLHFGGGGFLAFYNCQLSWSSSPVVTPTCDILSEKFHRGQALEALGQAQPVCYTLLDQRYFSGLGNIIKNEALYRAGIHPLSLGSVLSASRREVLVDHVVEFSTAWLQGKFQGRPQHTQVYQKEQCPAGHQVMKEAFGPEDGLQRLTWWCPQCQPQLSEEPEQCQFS
# Measurement parameters: Compound Concentration 10.0 uM, Hit No;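 further: fluorescence at 594 nm reports NEIL2 cutting and release of a quenched double-stranded DNA oligo substrate, reduced signal read as inhibition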
# Description: Inhibition of NEIL2 by quantifying inhibition of NEIL2-mediated cleavage and dissociation of quenched duplex DNA oligonucleotides, measured as fluorescence at 594 nm.
Listed below: inhibition values for each entry.
Report the figure in % without appending any unit label.

A selection of reference data follows.
{"Compound": "CCOC(=O)N[C@@H]1CC[C@@H]2[C@@H](C1)C[C@H]1C(=O)O[C@H](C)[C@H]1[C@H]2/C=C/c1ccc(-c2cccc(F)c2)cn1", "Result units": "%", "Obs value": -1.73}
{"Compound": "Cc1ccc2c(c1CCC(=O)O)CC[C@@H](NS(=O)(=O)c1ccc(Cl)cc1)C2", "Result units": "%", "Obs value": 1.01}
{"Compound": "CC(CNS(=O)(=O)C(C)C)c1ccc(-c2ccc(C#N)cc2)cc1 (centres undefined)", "Result units": "%", "Obs value": 0.669}
{"Compound": "CC[C@@H]1CN2C(=O)N(C)c3nc(-c4ccccc4)[nH]c3C2=N1", "Result units": "%", "Obs value": -3.73}

Provide inhibition value for the following compound: CN(c1ncccc1CNc1ccnc(-c2nc3c(F)c(Cl)ccc3[nH]2)n1)S(C)(=O)=O -8.38

Provide inhibition value for the following compound: CCNC1(C(N)=O)CCN(c2ncnc3c2nc(-c2ccccc2Cl)n3-c2ccc(Cl)cc2)CC1 3.76

Provide inhibition value for the following compound: CCc1ccccc1C(=O)Nc1n[nH]c2c(C)c(F)c(C3C(C#N)=C(C)N(C)C(C)=C3C#N)cc12 5.63

Provide inhibition value for the following compound: Cc1c(N2CCNCC2)nc2ccc(Br)cc2c1C(=O)NC[C@H](CCC(=O)O)c1ccccc1Cl 0.276

Provide inhibition value for the following compound: O=C(c1cc(C2CC2)on1)N(C1CCCCC1)C1CCCCC1 -3.92
